Target Entity: Growth hormone secretagogue receptor type 1 (Homo sapiens, UniProt Q92847)
Sequence (Q92847 whole entry): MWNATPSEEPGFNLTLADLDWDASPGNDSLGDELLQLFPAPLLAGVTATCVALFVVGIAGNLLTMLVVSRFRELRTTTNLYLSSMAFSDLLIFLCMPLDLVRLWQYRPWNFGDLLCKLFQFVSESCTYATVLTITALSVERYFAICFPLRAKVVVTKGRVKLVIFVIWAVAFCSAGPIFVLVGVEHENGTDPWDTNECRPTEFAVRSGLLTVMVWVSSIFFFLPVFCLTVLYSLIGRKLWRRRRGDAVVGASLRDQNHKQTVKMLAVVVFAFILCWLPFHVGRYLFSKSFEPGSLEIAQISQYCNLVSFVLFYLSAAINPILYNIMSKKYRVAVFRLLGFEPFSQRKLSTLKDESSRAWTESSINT
Assay Summary: Agonist activity at human ghrelin receptor by cell based BACMAM FLIPR assay
Observation Type: pEC50
pEC50 here: minus log base 10 of the concentration, concentration in moles per litre.

Compound: Cc1ccc(-c2ccc(S(=O)(=O)N3C[C@H](O)C[C@H]3C(=O)N3CC[C@@H](N)C3)cc2F)o1
pEC50: 9.30
--
Compound: Cc1ccc(-c2ccc(S(=O)(=O)N3CC[C@H](O)[C@H]3C(=O)N3CC[C@@H](N)C3)cc2F)o1
pEC50: 9.70
--
Compound: N[C@H]1CCN(C(=O)[C@@H]2CCCCN2S(=O)(=O)c2ccc(-c3cccnc3)cc2)C1
pEC50: 6.50
--
Compound: N[C@H]1CCN(C(=O)[C@@H]2CCCCN2S(=O)(=O)c2ccc(NC(=O)c3ccccc3)cc2)C1
pEC50: 7.70
--
Compound: NC1CCN(C(=O)C2CCCCN2S(=O)(=O)c2ccc(-c3ccccc3)cc2)C1 (stereo not drawn)
pEC50: 7.50

Name the reported pEC50 value associated with the compound `N[C@@H]1CCN(C(=O)[C@@H]2CCCCN2S(=O)(=O)c2ccc(-c3cc(Cl)ccc3Cl)cc2)C1` 9.50

// pEC50 lookup, key: `Cc1ccc(-c2ccc(S(=O)(=O)N3CCCC[C@H]3C(=O)N3CC[C@@H](N)C3)cc2F)o1` 10.30

Any idea what pEC50 was measured for `N[C@@H]1CCN(C(=O)[C@@H]2CCCCN2S(=O)(=O)c2ccc(-c3cc(F)ccc3F)cc2)C1` ? 9.00

----------
Target Entity: Growth hormone secretagogue receptor type 1 (Homo sapiens)
Assay Summary: Agonist activity at human ghrelin receptor by cell based BACMAM FLIPR assay
Some compounds, each annotated with its measured EC50.
Record the value in nM, omitting the unit from your answer.

Some solved cases for reference:
Smiles Str: Cc1ccc(-c2ccc(S(=O)(=O)N3CCCC[C@H]3C(=O)N3C[C@@H](C)N[C@@H](C)C3)cc2F)o1
Uom: nM
Quantitative Result: 2.51

Smiles Str: Cc1ccc(-c2ccc(S(=O)(=O)N3CCNC[C@H]3C(=O)N3CC[C@@H](N)C3)cc2)o1
Uom: nM
Quantitative Result: 1.26

Smiles Str: Cc1ccc(-c2ccc(S(=O)(=O)N3CCC[C@H]3C(=O)N3CC[C@@H](N)C3)cc2F)o1
Uom: nM
Quantitative Result: 0.398

Smiles Str: N[C@@H]1CCN(C(=O)[C@@H]2CCCCN2S(=O)(=O)c2ccc(-c3ccco3)c(F)c2)C1
Uom: nM
Quantitative Result: 3.16

Smiles Str: N[C@@H]1CCN(C(=O)[C@@H]2CCCCN2S(=O)(=O)c2ccc(-c3ccco3)cc2)C1
Uom: nM
Quantitative Result: 31.6

If you can, please state the reported EC50 value of `Cc1ccc(-c2ccc(S(=O)(=O)N3CCCC[C@H]3C(=O)N3CC[C@@H](N)C3)cc2)o1` . 0.251

Which EC50 is reported for this compound? `Cc1ccc(-c2ccc(S(=O)(=O)N3CCCC[C@H]3C(=O)N3CC[C@H](N)C3)cc2F)o1` 0.158

----------
Target Entity: Growth hormone secretagogue receptor type 1 (Homo sapiens)
Assay Summary: Agonist activity at human ghrelin receptor by cell based BACMAM FLIPR assay
Listed next: entries and their corresponding log10(EC50).
In plain terms, each number is the log10 of measured EC50 in nM.

Look at this molecule and give its reported log10(EC50). `N[C@H]1CCN(C(=O)[C@@H]2CCCCN2S(=O)(=O)c2ccc(NC(=O)c3ccccc3F)cc2)C1` 0.60

Which measured log10(EC50) value corresponds to `COc1cccc(C(=O)Nc2ccc(S(=O)(=O)N3CCCC[C@H]3C(=O)N3CC[C@H](N)C3)cc2)c1` ? 0.30

# get_value(readout='log10(EC50)', item= `Cc1ccc(-c2ccc(S(=O)(=O)N3C[C@@H](O)C[C@H]3C(=O)N3CC[C@@H](N)C3)cc2F)o1` ) 0.70

Which value of log10(EC50) has been reported for `N[C@H]1CCN(C(=O)[C@@H]2CCCCN2S(=O)(=O)c2ccc(-c3ccccc3)cc2)C1` in the records? 0.90

State the recorded log10(EC50) for this entry: `Cc1ccc(-c2ccc(S(=O)(=O)N3CCCC[C@H]3C(=O)N3CCCNCC3)cc2)o1` 0.90

For CNC1CCN(C(=O)[C@@H]2CCCCN2S(=O)(=O)c2ccc(-c3ccc(C)o3)cc2)C1 (stereo partly specified) , what is its reported log10(EC50)? 1.00

What value of log10(EC50) has been reported for the following molecule? `N[C@@H]1CCN(C(=O)[C@@H]2CCCCN2S(=O)(=O)c2ccc(Br)cc2)C1` 2.60

----------
Assay Summary: Volume of distribution at steady state in Sprague-Dawley rat at 1 mg/kg, iv
Format: ADME, organism-based
Design: dose 1 mg/kg, route intravenous
Conditions Used: in vivo, read-out: Vdss
Observation Type: Vd

Please report the recorded Vd for `Cc1ccc(-c2ccc(S(=O)(=O)N3CCC[C@H]3C(=O)N3CC[C@@H](N)C3)cc2F)o1` . 3.5 L/kg

----------
Assay Summary: Cmax in Sprague-Dawley rat at 1 mg/kg, iv
Format: ADME, organism-based
Design: dose 1 mg/kg, route intravenous
Conditions Used: in vivo
Observation Type: Cmax

For the compound shown here, `Cc1ccc(-c2ccc(S(=O)(=O)N3CCC[C@H]3C(=O)N3CC[C@@H](N)C3)cc2F)o1` , give the reported Cmax. 762 nM

----------
Target Entity: Growth hormone secretagogue receptor type 1 (Homo sapiens, UniProt Q92847)
Assay Summary: Agonist activity at human ghrelin receptor by cell based BACMAM FLIPR assay
Form field: pEC50 (one value per entry).
pEC50 is defined as minus the log10 of a concentration measured in mol/L.

Smiles Str: N[C@@H]1CCN(C(=O)[C@@H]2CCCCN2S(=O)(=O)c2ccc(-c3ccccc3)cc2)C1
pEC50: 7.80
//
Smiles Str: Cc1ccc(-c2ccc(S(=O)(=O)N3CC[C@H]3C(=O)N3CC[C@@H](N)C3)cc2F)o1
pEC50: 7.80

Attention now turns to another entry.
Endpoint output: pEC50 of `Cc1ccc(-c2ccc(S(=O)(=O)N3CCCC[C@H]3C(=O)N3C[C@@H](C)N[C@@H](C)C3)cc2)o1` . Value? 8.20
